Would you mind telling me the reported phenotypically active of each entry?
- System: A549-ACTB-RAB5A
- PROCEDURE TEXT: phenotypically active (imaging signature differs from DMSO and reproducible) at any of 0.3-9 uM (binary (1 = active, 0 = inactive)); higher = active
- MEASUREMENT SETUP: treatment time: 24 h
Where a name gives a salt, the structure may show the parent alone.
I only need the number, thanks.

Return reported phenotypically active; argument: C=CC(=O)Nc1cccc(CN2C(=O)N(c3c(Cl)c(OC)cc(OC)c3Cl)Cc3cnc(NCCCCN(CC)CC)nc32)c1 [FIIN 1 hydrochloride]
1

Can you handle `C=C1CN(Cc2ccc(C(=O)Nc3ccccc3N)cc2)C(=O)c2ccccc21` next?
1

Can you handle CCOc1cc(CC(=O)N[C@@H](CC(C)C)c2ccccc2N2CCCCC2)ccc1C(=O)O [repaglinide] next?
0

Can you handle COc1ccc(CCN(C)CCCN2CCc3cc(OC)c(OC)cc3CC2=O)cc1OC [zatebradine] next?
0
